Test system: ABUTH
Experiment: Post-emergence herbicidal action against ABUTH
Type: in vivo, Abutilon theophrasti
Conditions: Abutilon theophrasti, 504 h, dosage 5 g/ha, visual assessment about 3 weeks after treatment vs untreated controls

molecule	pest or weed control at 5 g/ha (%)
CCNC(=O)c1c(Br)ccc(C(=O)Nc2nnnn2C)c1Br [Example 1-343]	90
CCCNC(=O)c1c(C(F)(F)F)ccc(C(=O)Nc2nnnn2C)c1C [Example 1-32]	90
CCn1nnnc1NC(=O)c1ccc(C(F)(F)F)c(C(=O)NC)c1Cl [Example 2-129]	100
Cn1nnnc1NC(=O)c1ccc(C(F)(F)F)c(C(=O)NC2CC2)c1Br [Example 1-209]	90
CNC(=O)c1c(C(F)(F)C(F)(F)F)ccc(C(=O)Nc2nnnn2C)c1Cl [Example 1-165]	90
Cc1c(C(=O)Nc2nnnn2C)ccc(C(F)F)c1C(=O)NC1CC1 [Example 1-46]	90
CCCn1nnnc1NC(=O)c1ccc(C(F)(F)F)c(C(=O)NCC)c1C [Example 3-26]	80
CNC(=O)c1c(C(F)F)ccc(C(=O)Nc2nnnn2C)c1C [Example 1-44]	90
CNC(=O)c1c(C(F)(F)F)ccc(C(=O)Nc2nnnn2C)c1Cl [Example 1-129]	100

====

Tested on: LOLRI
Assay: Post-emergence herbicidal action against LOLRI
Format: in vivo, Lolium rigidum
Settings: Lolium rigidum, 504 h, dosage 20 g/ha
# pest or weed control at 20 g/ha listing for each entry below

compound	experimental.system	pest or weed control at 20 g/ha
CCn1nnnc1NC(=O)c1ccc(C(F)(F)F)c(C(=O)NC)c1Cl [Example 2-129]	LOLRI	100%
CCc1c(C(=O)Nc2nnnn2C)ccc(C(F)(F)F)c1C(=O)NC1CC1 [Example 1-273]	LOLRI	80%
CNC(=O)c1c(C(F)(F)C(F)(F)F)ccc(C(=O)Nc2nnnn2C)c1Cl [Example 1-165]	LOLRI	80%
CCNC(=O)c1c(C(F)(F)F)ccc(C(=O)Nc2nnnn2C)c1C [Example 1-26]	LOLRI	80%
CCn1nnnc1NC(=O)c1ccc(C(F)(F)F)c(C(=O)NC)c1SC [Example 2-81]	LOLRI	80%

====

Tested on: ECHCG
Experiment: Post-emergence herbicidal action against ECHCG
Type: in vivo, Echinochloa crus-galli
Conditions: dosage 20 g/ha

compound	Post-emergence action against ECHCG in % (%)
COCCNC(=O)c1c(C(F)F)ccc(C(=O)Nc2nnnn2C)c1C	90
CCNC(=O)c1c(Br)ccc(C(=O)Nc2nnc(C)o2)c1Cl	80
CCn1nnnc1NC(=O)c1ccc(C(F)F)c(C(=O)NC2CCC2)c1Cl	80
CCn1nnnc1NC(=O)c1ccc(C(F)F)c(C(=O)NC(C)C2CC2)c1SC (centres unmarked)	100
Cc1nnc(NC(=O)c2ccc(C(F)F)c(C(=O)NC(C)C3CC3)c2C)o1 (centres unmarked)	90

====

Test system: POLCO
Experiment: Pre-emergence herbicidal action against POLCO
Type: in vivo, Polygonum convolvulus
Conditions: dosage 80 g/ha
# Pre-emergence action against POLCO in % listing for each entry below

smiles.code	Pre-emergence action against POLCO in % / %
CCNC(=O)c1c(C(F)F)ccc(C(=O)Nc2nnc(C)o2)c1C	80
CCn1nnnc1NC(=O)c1ccc(C(F)(F)F)c(C(=O)NCC(F)F)c1C	80
CCn1nnnc1NC(=O)c1ccc(C(F)(F)F)c(C(=O)NCCOC)c1C	90
CCn1nnnc1NC(=O)c1ccc(C(F)F)c(C(=O)NCC2CC2)c1C	80
CCn1nnnc1NC(=O)c1ccc(C(F)F)c(C(=O)NC2CC2)c1OC	80
CCNC(=O)c1c(C(F)(F)F)ccc(C(=O)Nc2nnnn2CC)c1OC	90
Cn1nnnc1NC(=O)c1ccc(C(F)(F)F)c(C(=O)NCC2CC2)c1Cl	80

====

# pest or weed control at 20 g/ha listing for each entry below
Test system: AMARE
Assay: Pre-emergence herbicidal action against AMARE
Type: in vivo, Amaranthus retroflexus
Conditions: Amaranthus retroflexus, 504 h, 20 g/ha, scored visually after 3 weeks vs untreated controls, 100% = plants have died, 0% = like control plants

smiles.code	pest or weed control at 20 g/ha / %
CCCNC(=O)c1c(C(F)F)ccc(C(=O)Nc2nnnn2C)c1C	100
CNC(=O)c1c(C(F)(F)F)ccc(C(=O)Nc2nnnn2C)c1C	100
COc1ccc(C(=O)Nc2nnnn2C)c(Cl)c1C(=O)NC1CC1	100
CCn1nnnc1NC(=O)c1ccc(C(F)(F)F)c(C(=O)NC2CC2)c1OC	100
Cc1c(C(=O)Nc2nnnn2C)ccc(C(F)(F)F)c1C(=O)NC1CC1	100
CCn1nnnc1NC(=O)c1ccc(C(F)F)c(C(=O)NC(C)C)c1C	100
Cc1c(C(=O)Nc2nnnn2C)ccc(C(F)F)c1C(=O)NC(C)C	100
CNC(=O)c1c(C(F)(F)F)ccc(C(=O)Nc2nnnn2C)c1Br	100
Cn1nnnc1NC(=O)c1ccc(S(C)(=O)=O)c(C(=O)NC2CC2)c1Cl	90
CNC(=O)c1c(C(F)(F)C(F)(F)F)ccc(C(=O)Nc2nnnn2C)c1Cl	100
CCNC(=O)c1c(C(F)(F)F)ccc(C(=O)Nc2nnnn2CC)c1Cl	100
CCNC(=O)c1c(Cl)ccc(C(=O)Nc2nnnn2C)c1Br	100
CCNC(=O)c1c(Br)ccc(C(=O)Nc2nnnn2C)c1Cl	100
Cn1nnnc1NC(=O)c1ccc(Br)c(C(=O)NC2CC2)c1Cl	100
CNC(=O)c1c(S(C)(=O)=O)ccc(C(=O)Nc2nnnn2C)c1Cl	80
CCCn1nnnc1NC(=O)c1ccc(C(F)(F)F)c(C(=O)NCC)c1C	100
CCn1nnnc1NC(=O)c1ccc(Br)c(C(=O)NC2CC2)c1Br	100
CCn1nnnc1NC(=O)c1ccc(C(F)(F)F)c(C(N)=O)c1Cl	90

====

System: DIGSA
Assay: Pre-emergence herbicidal action against DIGSA
Type: in vivo, Digitaria sanguinalis
Conditions: Digitaria sanguinalis, 504 h, dosage 20 g/ha
observation.type: pest or weed control at 20 g/ha (%)

molecule	observation.type	reported
CNC(=O)c1c(C(F)F)ccc(C(=O)Nc2nnnn2C)c1OC [Example 1-72]	pest or weed control at 20 g/ha	90
Cc1nnc(NC(=O)c2ccc(C(F)(F)F)c(C(=O)NC(C)C)c2C)o1 [Example 6-255]	pest or weed control at 20 g/ha	100
CCn1nnnc1NC(=O)c1ccc(C(F)(F)F)c(C(=O)NC2CC2)c1Cl [Example 2-131]	pest or weed control at 20 g/ha	90
CNC(=O)c1c(C(F)(F)F)ccc(C(=O)Nc2nnnn2C)c1Br [Example 1-207]	pest or weed control at 20 g/ha	100
CCn1nnnc1NC(=O)c1ccc(C(F)(F)F)c(C(=O)NC(C)C)c1C [Example 2-33]	pest or weed control at 20 g/ha	100
CCNC(=O)c1c(C(F)(F)F)ccc(C(=O)Nc2nnnn2CC)c1C1CC1 [Example 2-287]	pest or weed control at 20 g/ha	100
CNC(=O)c1c(C(F)F)ccc(C(=O)Nc2nnnn2C)c1SC [Example 1-87]	pest or weed control at 20 g/ha	100
CCNC(=O)c1c(C(F)F)ccc(C(=O)Nc2nnnn2CC)c1CC [Example 2-278]	pest or weed control at 20 g/ha	100
CCNC(=O)c1c(C(F)(F)F)ccc(C(=O)Nc2nnnn2C)c1OC [Example 1-57]	pest or weed control at 20 g/ha	100
CCn1nnnc1NC(=O)c1ccc(Br)c(C(=O)NC2CC2)c1Cl [Example 2-179]	pest or weed control at 20 g/ha	100
CCNC(=O)c1c(C(F)F)ccc(C(=O)Nc2nnnn2C)c1SC [Example 1-88]	pest or weed control at 20 g/ha	100

====

System: VIOTR
Test: Post-emergence herbicidal action against VIOTR
Type: in vivo, Viola tricolor
Details: 5 g/ha
# Post-emergence action against VIOTR in % listing for each entry below
observation.type: Post-emergence action against VIOTR in % (%)

compound	unit.tag	reported
CCn1nnnc1NC(=O)c1ccc(C(F)F)c(C(=O)NCCOC)c1C [Example 2-346]	%	80
CCNC(=O)c1c(C(F)F)ccc(C(=O)Nc2nnnn2CC)c1SC [Example 2-88]	%	80
CCn1nnnc1NC(=O)c1ccc(C(F)F)c(C(=O)NCC2CC2)c1C [Example 2-47]	%	80
CCn1nnnc1NC(=O)c1ccc(C(F)F)c(C(=O)NC(C)C2CC2)c1SC (centres unmarked) [Example 2-351]	%	100
CCc1c(C(=O)Nc2nnnn2CC)ccc(C(F)(F)F)c1C(=O)NC [Example 2-271]	%	80
CCNC(=O)c1c(C(F)F)ccc(C(=O)Nc2nnnn2CC)c1Br [Example 2-226]	%	90
CCn1nnnc1NC(=O)c1ccc(C(F)F)c(C(=O)NC)c1Br [Example 2-225]	%	100
COCCNC(=O)c1c(C(F)F)ccc(C(=O)Nc2nnnn2C)c1C [Example 1-347]	%	80

====

# pest or weed control at 80 g/ha listing for each entry below
System: HORMU
Assay: Pre-emergence herbicidal action against HORMU
Type: in vivo, Hordeum murinum
Settings: Hordeum murinum, 504 h; 80 g/ha, pre-emergence

smiles.code	pest or weed control at 80 g/ha / %
CNC(=O)c1c(C(F)(F)F)ccc(C(=O)Nc2nnnn2C)c1SC	80
CCNC(=O)c1c(C(F)(F)F)ccc(C(=O)Nc2nnnn2CC)c1SC	80
CCn1nnnc1NC(=O)c1ccc(Cl)c(C(=O)NC2CC2)c1Cl	100
CCn1nnnc1NC(=O)c1ccc(C(F)(F)F)c(C(=O)NC2CC2)c1Cl	80
CCn1nnnc1NC(=O)c1ccc(C(F)(F)F)c(C(=O)NC)c1SC	90
CCn1nnnc1NC(=O)c1ccc(C(F)(F)F)c(C(N)=O)c1Cl	80
CCNC(=O)c1c(C(F)(F)F)ccc(C(=O)Nc2nnnn2C)c1C	80
